# test method notes: NCI Yeast Anticancer Drug Screen. Data for the rad50 strain (AID 155);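 further: 0% = growth of vehicle-only cultures of the same strain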
# run parameters: S. cerevisiae rad50 strain growth inhibition; at 5.0 µM (retest, dose inferred, filed as 0.5); active compounds read high
Compounds without any hit were thinned out: in the full panel of roughly 79,000, 15% have a hit.
recorded metric: growth inhibition (%)

molecule	reported value
c1ccc(C2=NCCC(c3ccccc3)S2)cc1 (stereo unspecified)	-2
CC1SC2(C(=O)Nc3ccc([N+](=O)[O-])cc32)N(c2ccc(Cl)cc2)C1=O (stereo unspecified)	7
Cc1ccc(-c2n[nH]c(=O)n2/N=C\c2ccccc2)cc1	21
COc1ccc(-c2nnc(C)nc2-c2ccc(OC)cc2)cc1	3
Nc1n[nH]c(=O)c2cccnc12	-1
Cc1cc(Br)c(NC(=O)CBr)cc1C	-1
COc1ncnc2nc(SC)[nH]c12	-1
O=P(Nc1ccccc1)(OCc1ccccc1)OCc1ccccc1	-4
S=c1[nH]nc(SCc2ccc(Cl)c(Cl)c2)c2[nH]cnc12	-4
C/C(=N\NC(=S)N1CCCCCC1)c1ccccn1	88
COc1ccc(C(C)=O)c(OC(=O)c2ccccc2)c1OC(=O)c1ccccc1	-22
CCOC(=O)OCCSCCOC(=O)OCC	-14
C=C1CCC[C@@]2(C)CC[C@@H](/C(C)=C\C=C\C(C)(C)O)C[C@H]12	0
Cc1cc(N2C(=O)CCSC2=S)ccc1Cl	88
C=CS(=O)(=O)c1ccc(Cl)cc1	-116
CC1CCC(C(C)C)C(OC(=O)Nc2ccc(S(=O)(=O)N(C)C)cc2)C1 (stereo unspecified)	25

###

# test method notes: NCI Yeast Anticancer Drug Screen. Data for the sgs1 mgt1 strain (AID 161);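 further: 0% = growth of cultures given vehicle only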
# run parameters: S. cerevisiae sgs1 mgt1 strain, at 50.0 µM (retest, dose inferred, filed as 5.0)
This is part of a sample that, as a whole, favours compounds with a hit. Of some 79,000 tested, about 15% had one in any assay. Activity calls are given as the source filed them. Rule as the data show it: active = growth inhibition above about 70%; inactive = the rest.
Outcome codes: 1 (yes) for active, 0 (no) for inactive

compound	label
c1ccc(N=C2SC3=NCCN3C2=Nc2ccccc2)cc1	1 (yes)
CCN(CC)CCOC(=O)c1ccc(N=Nc2ccc(O)c3ccccc23)cc1	1 (yes)
Clc1ccc(/C=N/Nc2c3ccccc3nc3ccccc23)c(Cl)c1	1 (yes)
COc1ccc(Br)c2c1CC(C(=O)O)CC2 (stereo not given)	0 (no)
O=C(O)/C=C/C(=O)NNc1nc2ccccc2s1	0 (no)

###

A collection of compounds and their measured growth inhibition
# test method notes: NCI Yeast Anticancer Drug Screen. Data for the rad50 strain (AID 155);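 further: 0% = growth of vehicle-only cultures of the same strain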
# run parameters: S. cerevisiae rad50 strain growth inhibition; at 50.0 µM (retest, dose inferred, filed as 5.0); active compounds read high
About 79,000 compounds went through this panel and 15% of them were active in at least one assay; those are over-represented in the sample as a whole.

compound	u	growth inhibition
CN(C)C1=NC(N(C)C)=C2C=CC=C12	%	49
Cc1cc2nc(-c3ccccc3[N+](=O)[O-])[nH]c2cc1C	%	20
Cc1[nH]c(=O)[nH]c(=O)c1CN(C)Cc1cc(Cl)cc(Cl)c1O	%	70
CC(C)=CCC/C(C)=C/CC/C(C)=C/CSc1ccccc1C(=O)O	%	17
O=c1[nH]c2ccc([N+](=O)[O-])c(Cl)c2c2ccccc12	%	97
CCCCCCCCCCCCCCCCS(=O)(=O)Cl	%	96
CNS(=O)(=O)c1ccccc1C=C(c1ccccc1)c1ccccc1	%	90
Cc1nc(-c2ccc(N=Cc3ccc(N(CCOS(C)(=O)=O)CCOS(C)(=O)=O)cc3Cl)cc2)c(C)s1	%	33
CC(=O)N(C1=CC(=O)c2ccccc2C1=O)c1ccc(C)cc1	%	99
CCOC(=O)C(C(=O)O)(C(c1ccccc1)c1ccccc1)C(c1ccccc1)c1ccccc1	%	98
Cc1cccc2c(Nc3ccc(NS(C)(=O)=O)cc3)c3ccccc3nc12	%	94
C=CCNc1nc2c(s1)C(=O)c1ccccc1C2=O	%	98
Cc1ccc2[nH]c3c(c2c1)[n+]([O-])c1ccccc1[n+]3[O-]	%	16
COC1=CC(=O)[C@H]2CC(C)=CC[C@]2(C)C1=O	%	2
Cc1cccc2c(=O)c3ccccc3oc12	%	42
CSS(=O)(=O)c1ccc(C)cc1	%	99
CC1=C(C(=O)Nc2ccccc2)C(c2cc(Cl)cc(Cl)c2)C(C(=O)Nc2ccccc2)=C(C)N1	%	2
CCCCCC(C1SC(=S)NC1=O)C1SC(=S)NC1=O (stereo not drawn)	%	-3
CCOC(=O)CSC(=S)N1CCOCC1	%	-2
O=C(N/C(=C\c1ccc(Oc2ccc(Cl)c(Cl)c2)cc1)c1nc2ccccc2[nH]1)c1ccccc1	%	97
O=P1(NCC2CCCO2)OCC2(CO1)COP(=O)(NCC1CCCO1)OC2 (stereo not drawn)	%	95
COC(=O)Cc1nc2ccccc2s1	%	99
CC(NNC(=S)N1CC2CCC(CC2)C1)c1nccc2ccccc12 (stereo not drawn)	%	96
Cc1ccc2nc(CC(=O)c3cccnc3)c(CC(=O)c3cccnc3)nc2c1	%	95
COC(=O)C1CCN(Cc2ccccc2)CC1=O (stereo not drawn)	%	57
O=[N+]([O-])c1ccc(-c2ccc(-c3csc(Nc4ccccc4)n3)o2)cc1	%	96
CCC(c1ccc(O)cc1)C(CC)c1ccc(OCC(N)=O)cc1 (stereo not drawn)	%	-5
N#CSc1ccc(Nc2ccc(SC#N)cc2)cc1	%	98
